Task for the reader: assign each of the following compounds its reported cytotoxicity at 70.5 h.
- EXPERIMENT SUMMARY: Human HepG2 cell viability assay in 384 well format
- Assay type: toxicity, cell-based
- Set-up: dose 125 nL, time 70.5 hour; concentration not given beside the values
- CONDITION DESCRIPTION: HepG2 cells, read-out: Inhibition
# answer = value followed by unit

{"columns": ["COMPOUND", "cytotoxicity at 70.5 h"],
 "data": [
  ["CN(Cc1cc(C(C)(C)C)n[nH]1)Cc1c[nH]nc1-c1ccc(F)cc1", "-4.87%"],
  ["Cc1cc(C(F)(F)F)c2c(C3CCCN(C(=O)C4CC4)C3)noc2n1 (stereo unspecified)", "-8.63%"],
  ["Cc1cc(CNc2ccc3nc(C4CC4)sc3c2)no1", "-9.59%"],
  ["CC(C)COC(C)C(=O)N1CCC(C)CC1 (stereo unspecified)", "3.43%"]
]}

Please look at the items below and tell me cytotoxicity at 70.5 h for each one, in order.
1. CCc1noc(CN(C)CCC(=O)Nc2ccccc2C#N)n1
2. COCCCNC1CCCN(c2ccc(C)nn2)C1 (stereo unspecified)

Reply |
1: -1.02%; 2: -9.97%

---

Task for the reader: assign each of the following compounds its reported cytotoxicity at 70.5 h.
- EXPERIMENT SUMMARY: Human HepG2 cell viability assay in 384 well format
- Assay type: toxicity, cell-based
- Design: dose 125 nL, time 70.5 hour; concentration not given beside the values
- CONDITION DESCRIPTION: HepG2 cells, read-out: Inhibition
Answers are plain numbers, in %.

Please look at the items below and tell me cytotoxicity at 70.5 h for each one, in order.
1. O=C(O)CCNC(=O)N1CCc2c([nH]c3ccc(Cl)cc23)C1
2. O=C(C1CCCN1Cc1nc(-c2ccco2)no1)N1CCSCC1 (stereo not drawn)
3. COCC(=O)NCc1cc(=O)n2c(n1)CN(CC1CCOC1)CCC2 (stereo not drawn)
4. CC(=O)NCCC(=O)Nc1sccc1C(=O)C(C)(C)C
5. CCOCc1cncc2c1CCN(S(=O)(=O)c1ccccc1)C2

Reply |
1: -6.59; 2: -5.08; 3: 15.2; 4: 2.44; 5: -3.1

Please look at the items below and tell me cytotoxicity at 70.5 h for each one, in order.
1. Cc1cc2n(n1)CC(CNC1CCN(C(=O)c3ccco3)CC1)CN2 (stereo not drawn)
2. O=C(NCC1CC1)[C@H]1C[C@@H]2CN(C(=O)NCC3CCCCC3)C[C@H]1O2
3. CC(C)(C)c1coc([C@@H]2COCCN2Cc2csnn2)n1
4. COCCSc1ccc(C(C)NC(=O)Nc2cn[nH]c2)cc1 (stereo not drawn)
5. CCS(=O)(=O)CC(=O)NC1(c2ccc(Cl)c(Cl)c2)CC1
6. COc1c(CNCc2cnn(C)c2)c(C(C)C)nn1C
7. Cc1cccc(CN2CCC(c3csc4nccn34)CC2)n1
8. COC(=O)c1cc(C(=O)N2CCc3ccc(F)cc3C2C)ccn1 (stereo not drawn)

Reply |
1. -6.69
2. 30.6
3. -1.66
4. -6.86
5. -2.35
6. 7.69
7. 0.645
8. -0.61

Please look at the items below and tell me cytotoxicity at 70.5 h for each one, in order.
1. CN(C)Cc1cc(=O)n2c(n1)CN(CC1CC1)CCC2
2. CCCc1noc(C2CC(=O)N(Cc3ccccc3)C2)n1 (stereo not drawn)
3. C[C@@H]1CN(S(C)(=O)=O)C[C@]12CCN(Cc1cccnc1)C2=O

Reply |
-6.12
-8.97
14.9
